Tested on: biotinyl-Met-oxazolone
Experimental protocol: self-aminoacylation, catalytic enhancement (BMO) (fold over background); higher = more active; k-Seq, kA / k0A0; sequences stand for … in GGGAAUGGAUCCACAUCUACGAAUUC…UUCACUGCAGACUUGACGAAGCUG
This sample holds only a part of the variants without activity.
Readings of self-aminoacylation for the listed sequences

{"columns": ["Query sequence", "self-aminoacylation"],
 "data": [
  ["AUGCACCUAGGUCAUCGUGUG [Fam2.2 aminoacylation ribozyme variant]", 1.18],
  ["AUUACCCAGGUCAUCCAGUGA [Fam2.1 aminoacylation ribozyme variant]", 5.32],
  ["CCACACUUAAAGCAUUCGGUC [Fam1B.1 aminoacylation ribozyme variant]", 1.17],
  ["CCACCCGUCAAGCAAUCGGUC [Fam1B.1 aminoacylation ribozyme variant]", 1.2],
  ["AACUUUGCUAAUAGUCGCAAG [Fam3.1 aminoacylation ribozyme variant]", 2.2],
  ["CUACUUCACACAAUCGGUCUA [Fam1A.1 aminoacylation ribozyme variant]", 0.626],
  ["AUCCACCUAGGUCAGCGGGUG [Fam2.2 aminoacylation ribozyme variant]", 3.79],
  ["AUUACCCUGGGCAUCGAGUGU [Fam2.1 aminoacylation ribozyme variant]", 2.02],
  ["ACUAGCCUGGUCAUCGAGUGA [Fam2.1 aminoacylation ribozyme variant]", 4.28]
]}

The values you see were collected from the supplement of paper PMC9233669.
